Consider the following compounds; for each one, report its cytotoxicity at 10 µM.
- Assay Procedure: Toxicity liver stage against HepG2, at 10uM
- Assay type: cell-based
- Design: test concentration 10 uM, cell line HepG2-A16-CD81EGFP
- Condition Description: human, HepG2-A16-CD81EGFP cells; read-out: INHIBITION
I only need the number, in %, no unit after it.

Challenge: Quick one: cytotoxicity at 10 µM of CCN(CC)C(=O)[C@@H]1C[C@H](N)CN1c1nnc(-c2ccccc2)s1 ?
Response given: -51.7

Challenge: Quick one: cytotoxicity at 10 µM of O=C(NCCc1nncn1C1CC1)c1cnn(Cc2ccccc2)c1 ?
Response given: -2.36

Challenge: Quick one: cytotoxicity at 10 µM of CN(C)C(=O)CO[C@H]1CN(Cc2ccoc2)[C@@H]2COC[C@H]12 ?
Response given: 6.17

Challenge: Quick one: cytotoxicity at 10 µM of Cc1ccc(N2CCCC(N3CCC(CO)CC3)C2=O)cc1 (centres undefined) ?
Response given: 0.473

Challenge: Quick one: cytotoxicity at 10 µM of CC(C)Cn1cnnc1C1CCCN1C(=O)c1cc2ccccn2c1 (centres undefined) ?
Response given: -0.384

Challenge: Quick one: cytotoxicity at 10 µM of CN1CCC2(CCCN(S(=O)(=O)c3ccc(-c4cnco4)s3)C2)C1 (centres undefined) ?
Response given: -7.56

Challenge: Quick one: cytotoxicity at 10 µM of O=C(C1CCC1)N1CCC(C2CCN(Cc3ccc(Cl)cc3)C2)CC1 (centres undefined) ?
Response given: -10.5

Challenge: Quick one: cytotoxicity at 10 µM of Cc1cccc(-c2ccc(C(=O)NCCN(C)C3CC3)c(=O)[nH]2)c1 ?
Response given: -6.81

Challenge: Quick one: cytotoxicity at 10 µM of O=C(c1ccco1)N1CCC(n2cc(-c3ccsc3)nn2)CC1 ?
Response given: 1.41

Challenge: Quick one: cytotoxicity at 10 µM of COc1cc2c(cc1OC)C(=O)C(Sc1nnnn1C)C2 (centres undefined) ?
Response given: -13.7

Challenge: Quick one: cytotoxicity at 10 µM of COc1ccc(CCC2CCCCN2)cc1OC (centres undefined) ?
Response given: 12.1

Challenge: Quick one: cytotoxicity at 10 µM of Cc1nccn1C1CCCN(C(=O)c2ccnc(-n3ccnc3)c2)C1 (centres undefined) ?
Response given: 0.998

Challenge: Quick one: cytotoxicity at 10 µM of Cc1noc(C)c1CCC(=O)N1CCN(Cc2cscn2)CC1 ?
Response given: -6.28

Challenge: Quick one: cytotoxicity at 10 µM of Cc1nc(C)n(C2CCCN(C(=O)c3ccc(O)nc3)C2)n1 (centres undefined) ?
Response given: -1.95

Challenge: Quick one: cytotoxicity at 10 µM of CN(Cc1cccc(O)c1)C(=O)c1ccc(CCC(C)(C)O)cc1 ?
Response given: 3.58

Challenge: Quick one: cytotoxicity at 10 µM of CC(=O)N1CCC2(CCCN(S(=O)(=O)c3ccccc3)C2)C1 (centres undefined) ?
Response given: 0.169

Challenge: Quick one: cytotoxicity at 10 µM of Cc1ccccc1C(=O)NCc1ccnc(N(C)C)c1 ?
Response given: -8.84

Challenge: Quick one: cytotoxicity at 10 µM of CC(C)CN1CCS(=O)(=O)[C@@H]2CCN(S(=O)(=O)C3CC3)CC[C@@H]21 ?
Response given: 7.8

Challenge: Quick one: cytotoxicity at 10 µM of CCCc1cc(C(=O)N2CCC3(CC2)CN(CCN(C)C)C(=O)O3)no1 ?
Response given: 14.1

Challenge: Quick one: cytotoxicity at 10 µM of CCS(=O)(=O)NCCCNc1ncnc2cc(F)c(F)cc12 ?
Response given: 9.29

Challenge: Quick one: cytotoxicity at 10 µM of CC(C)OCCN1CCC(Nc2nccnc2C#N)CC1 ?
Response given: 2.72

Challenge: Quick one: cytotoxicity at 10 µM of CC(C)N(CC1CCCN(CC(N)=O)C1)C(=O)OC(C)(C)C (centres undefined) ?
Response given: -5.66

Challenge: Quick one: cytotoxicity at 10 µM of CN(Cc1cncnc1)[C@@H]1CN(Cc2ccco2)C[C@@H]2CCCO[C@@H]21 ?
Response given: -1.6

Challenge: Quick one: cytotoxicity at 10 µM of CS(=O)(=O)N1C[C@@H]2COC[C@]2(COCC(=O)N2CCCC2)C1 ?
Response given: -114

Challenge: Quick one: cytotoxicity at 10 µM of Cc1ccc(F)cc1C(=O)N1CCOCC12CCCC2 ?
Response given: -8.68

Challenge: Quick one: cytotoxicity at 10 µM of COC[C@@]12CC[C@@H](N3CCOCC3)C[C@H]1CCN(c1ncccc1Cl)C2 ?
Response given: -13.2

Challenge: Quick one: cytotoxicity at 10 µM of Cn1cc(Cl)cc1C(=O)N1CCN(CCc2cccs2)CC1 ?
Response given: -11.8

Challenge: Quick one: cytotoxicity at 10 µM of OCCOCc1n[nH]c2c1CN(Cc1ccccn1)C2 ?
Response given: -112

Challenge: Quick one: cytotoxicity at 10 µM of CC[C@H](C)[C@H](N)C(=O)Nc1nc(-c2cnc(N(C)CCO)nc2)cs1 ?
Response given: -9.27
